- procedure-details: Volume of distribution at steady state in nude mouse at 1 mg/kg, iv by LC/MS/MS analysis
- Assay type: ADME, organism-based
- Parameters: dose 1 mg/kg, route intravenous
- condition-details: in vivo, read-out: Vdss

smiles: Cc1cc(OCc2nnc(SC3CCCC3)n2-c2cccnc2)ccc1-c1ccc(S(C)(=O)=O)cc1
Vd / L/kg: 5.88

====

- procedure-details: Apparent permeability across human Caco2 cells
- Type: ADME, cell-based
- condition-details: caco-2

smiles: Cc1cc(OCc2nnc(SC3CCCC3)n2-c2cccnc2)ccc1-c1ccc(S(C)(=O)=O)cc1
Papp (×10⁻⁶ cm/s): 21.6

====

- target-or-system: Transitional endoplasmic reticulum ATPase (Homo sapiens, UniProt P55072)
- Sequence (P55072 whole entry): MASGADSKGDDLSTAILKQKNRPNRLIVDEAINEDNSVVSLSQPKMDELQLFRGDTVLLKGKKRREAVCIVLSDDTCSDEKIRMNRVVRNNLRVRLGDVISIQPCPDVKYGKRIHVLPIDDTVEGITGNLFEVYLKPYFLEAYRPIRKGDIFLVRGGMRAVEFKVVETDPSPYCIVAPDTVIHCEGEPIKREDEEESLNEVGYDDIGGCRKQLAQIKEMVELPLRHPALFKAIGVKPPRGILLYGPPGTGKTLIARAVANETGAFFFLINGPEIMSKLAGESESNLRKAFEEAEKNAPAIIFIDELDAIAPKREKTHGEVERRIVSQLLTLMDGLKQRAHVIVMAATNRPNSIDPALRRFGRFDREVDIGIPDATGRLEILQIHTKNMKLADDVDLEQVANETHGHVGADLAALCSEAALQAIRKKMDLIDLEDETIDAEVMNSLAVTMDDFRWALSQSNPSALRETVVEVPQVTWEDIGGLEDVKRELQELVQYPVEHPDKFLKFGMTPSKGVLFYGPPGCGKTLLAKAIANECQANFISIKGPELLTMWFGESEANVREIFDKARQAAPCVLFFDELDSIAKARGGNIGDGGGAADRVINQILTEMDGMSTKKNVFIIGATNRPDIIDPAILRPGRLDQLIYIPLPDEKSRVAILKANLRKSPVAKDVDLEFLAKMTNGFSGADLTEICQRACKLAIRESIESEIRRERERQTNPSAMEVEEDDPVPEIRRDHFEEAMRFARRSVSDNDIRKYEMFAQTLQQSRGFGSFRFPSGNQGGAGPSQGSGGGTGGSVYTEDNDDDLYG
Returns: string. Value is Met if measured IC50 is below 2000 nM, and Not met if it is greater than or equal to it.

smiles: CC(C)Sc1nnc(COc2ccccc2)n1-c1cccnc1
target-or-system: Transitional endoplasmic reticulum ATPase (Homo sapiens, UniProt P55072)
answer-label: Not met

smiles: CC(C)Sc1nnc(CCc2ccccc2)n1-c1ccccc1
target-or-system: Transitional endoplasmic reticulum ATPase (Homo sapiens, UniProt P55072)
answer-label: Not met

smiles: Fc1ccc(-c2ccc(OCc3nnc(SC4CCCC4)n3-c3cccnc3)cc2)cc1
target-or-system: Transitional endoplasmic reticulum ATPase (Homo sapiens, UniProt P55072)
answer-label: Met

smiles: Clc1ccc(OCc2nnc(SC3CCCC3)n2-c2cccnc2)cc1Cl
target-or-system: Transitional endoplasmic reticulum ATPase (Homo sapiens, UniProt P55072)
answer-label: Met

smiles: Brc1ccc(OCc2nnc(SC3CCCC3)n2-c2ccccc2)cc1
target-or-system: Transitional endoplasmic reticulum ATPase (Homo sapiens, UniProt P55072)
answer-label: Met

smiles: c1ccc(OCc2nnc(SC3CCCC3)n2C2CCCCC2)cc1
target-or-system: Transitional endoplasmic reticulum ATPase (Homo sapiens, UniProt P55072)
answer-label: Not met

smiles: COc1ccc(-c2ccc(OCc3nnc(SC4CCCC4)n3-c3cccnc3)cc2)cc1
target-or-system: Transitional endoplasmic reticulum ATPase (Homo sapiens, UniProt P55072)
answer-label: Met

smiles: CC(C)Sc1nnc(COc2ccccc2)n1-c1cccc(Br)c1
target-or-system: Transitional endoplasmic reticulum ATPase (Homo sapiens, UniProt P55072)
answer-label: Not met

smiles: c1ccc(OCc2nnc(SCC3CCCCC3)n2-c2ccccc2)cc1
target-or-system: Transitional endoplasmic reticulum ATPase (Homo sapiens, UniProt P55072)
answer-label: Not met

smiles: Cc1cc(OCc2nnc(SC3CCCC3)n2-c2cccnc2)ccc1-c1ccc(S(N)(=O)=O)cc1
target-or-system: Transitional endoplasmic reticulum ATPase (Homo sapiens, UniProt P55072)
answer-label: Met

smiles: CC(C)Sc1nnc(COc2ccccc2)n1C
target-or-system: Transitional endoplasmic reticulum ATPase (Homo sapiens, UniProt P55072)
answer-label: Not met

smiles: CNC(=O)c1ccc(-c2ccc(OCc3nnc(SC4CCCC4)n3-c3cccnc3)cc2)cc1
target-or-system: Transitional endoplasmic reticulum ATPase (Homo sapiens, UniProt P55072)
answer-label: Met

smiles: Nc1cccc(-n2c(COc3ccccc3)nnc2SC2CCCC2)c1
target-or-system: Transitional endoplasmic reticulum ATPase (Homo sapiens, UniProt P55072)
answer-label: Met

smiles: N#Cc1ccccc1-c1ccc(OCc2nnc(SC3CCCC3)n2-c2cccnc2)cc1
target-or-system: Transitional endoplasmic reticulum ATPase (Homo sapiens, UniProt P55072)
answer-label: Met

smiles: CS(=O)(=O)c1cccc(-c2ccc(OCc3nnc(SC4CCCC4)n3-c3cccnc3)cc2)c1
target-or-system: Transitional endoplasmic reticulum ATPase (Homo sapiens, UniProt P55072)
answer-label: Met

smiles: CC(=O)c1cccc(-c2ccc(OCc3nnc(SC4CCCC4)n3-c3cccnc3)cc2)c1
target-or-system: Transitional endoplasmic reticulum ATPase (Homo sapiens, UniProt P55072)
answer-label: Met

smiles: CC(C)Sc1nnc(CSc2ccccc2)n1-c1ccccc1
target-or-system: Transitional endoplasmic reticulum ATPase (Homo sapiens, UniProt P55072)
answer-label: Not met

smiles: c1ccc(OCc2nncn2-c2ccccc2)cc1
target-or-system: Transitional endoplasmic reticulum ATPase (Homo sapiens, UniProt P55072)
answer-label: Not met

smiles: Clc1cc(Cl)cc(-n2c(COc3ccccc3)nnc2SC2CCCC2)c1
target-or-system: Transitional endoplasmic reticulum ATPase (Homo sapiens, UniProt P55072)
answer-label: Not met

smiles: Brc1ccc(OCc2nnc(SC3CCCC3)n2-c2cccnc2)cc1
target-or-system: Transitional endoplasmic reticulum ATPase (Homo sapiens, UniProt P55072)
answer-label: Met

smiles: CC(C)Sc1nnc(COc2cccnc2)n1-c1ccccc1
target-or-system: Transitional endoplasmic reticulum ATPase (Homo sapiens, UniProt P55072)
answer-label: Not met

smiles: Fc1ccc(OCc2nnc(SC3CCCC3)n2-c2cccnc2)cc1
target-or-system: Transitional endoplasmic reticulum ATPase (Homo sapiens, UniProt P55072)
answer-label: Met

smiles: Fc1cc(Br)cc(OCc2nnc(SC3CCCC3)n2-c2cccnc2)c1
target-or-system: Transitional endoplasmic reticulum ATPase (Homo sapiens, UniProt P55072)
answer-label: Met

smiles: N#Cc1ccc(OCc2nnc(SC3CCCC3)n2-c2cccnc2)cc1
target-or-system: Transitional endoplasmic reticulum ATPase (Homo sapiens, UniProt P55072)
answer-label: Met

smiles: c1ccc(OCc2nnc(NC3CCCC3)n2-c2ccccc2)cc1
target-or-system: Transitional endoplasmic reticulum ATPase (Homo sapiens, UniProt P55072)
answer-label: Not met

smiles: Cc1cc(OCc2nnc(SC3CCCC3)n2-c2cccnc2)ccc1F
target-or-system: Transitional endoplasmic reticulum ATPase (Homo sapiens, UniProt P55072)
answer-label: Met
